# Assay remarks: in vitro
# Test conditions: human, plasma, PPB
Measurement type: fraction unbound at 5 h
Output spec: single numeric token, no unit.

Worked examples follow.
CC(C)S(=O)(=O)N(C)c1cc(C(=O)N[C@@H](Cc2ccccc2)[C@@H](N)CF)cc(NC[C@H]2C[C@@H]2C)n1: 0.0447
CNc1c(Cl)cnc2nc(-c3ccc(OCCN4CCOCC4)cc3)[nH]c12: 0.0191
CN[C@@H](C)C(=O)N[C@H](C(=O)N[C@H]1CCCN(C(=O)c2ccccc2)C1)C1CCCCC1: 0.552
Cc1nc2ccc(NS(=O)(=O)c3ccc4c(c3)OCCO4)cc2s1: 0.0033
CCCc1nc2c(C)cc(-c3nc4ccccc4n3C)cc2n1Cc1ccc(-c2ccccc2C(=O)O)cc1: 0.0077

### Prompt Which value of fraction unbound at 5 h has been reported for `CNc1c(Br)cnc2nc(-c3ccc(OCCN4CCN(C)CC4)cc3)[nH]c12` in the records?
### Response 0.0383

### Prompt Can you handle `O=C1CCc2cc(-c3cncc4ccccc34)ccc2N1` next?
### Response 0.0358

* * *

Recorded microsomal CLint by entry
# Assay remarks: in vitro
# Test conditions: human, microsomes

COc1ccc([C@]2(C#N)CC[C@@H](C(=O)O)CC2)cc1OC1CCCC1: 13 µL/min/mg

### Prompt Which value of microsomal CLint has been reported for `O=C(c1ccccc1)N1CCC2(CCN(Cc3cccc(Cl)c3)CC2)CC1` in the records?
### Response 5 µL/min/mg

### Prompt Can you handle CCC(C)NC(=O)c1c(C)nn(-c2ccccc2)c1NS(=O)(=O)c1ccc(C)cc1 (centres undefined) next?
### Response 15.7 µL/min/mg

### Prompt Can you handle `C#CC[C@@H](C(=O)N[C@H](/C=C/C(=O)OCC)C[C@@H]1CCNC1=O)n1cccc(NC(=O)c2cc(C)on2)c1=O` next?
### Response 20.9 µL/min/mg

### Prompt Can you handle `Nc1nc(NCc2ccccc2)nc2c1nc(O)n2Cc1ccccc1` next?
### Response 11 µL/min/mg

### Prompt Can you handle `O=c1[nH]c2c(O)ccc([C@@H](O)CNCCSCCCOCCc3ccccc3)c2s1` next?
### Response 75 µL/min/mg

* * *

# Assay remarks: in vitro
# Test conditions: hepatocytes
// assign y if hepatocyte CLint falls strictly below 40 µL/min/1e6 cells, else n (ties count as n)

CC1N=C(N)N=C(N)N1c1ccc(Cl)cc1 (stereo not drawn): y
O=C1COC2(CCN(S(=O)(=O)c3ccc(-c4ccc5cnccc5c4)cc3)CC2)CN1C1CC1: n
COc1ccc(-c2nc3c(NCCCN(C)C(=O)C4CCC4)c(Br)cnc3[nH]2)cc1: n
Cc1cc(-c2ccc(Cl)c(C(=O)NCC3(O)CCCCCC3)c2)nn1C[C@H](O)CN: y
CCN(Cc1cc(C(F)(F)F)ccc1-c1cc(CC(=O)O)ccc1OC)C(=O)NCc1ccccc1: y

### Prompt Check if hepatocyte CLint falls below 40 µL/min/1e6 cells for CN(C)C(C)(C(=O)OC1CC[N+](C)(C)CC1)c1ccccc1 (stereo not drawn) .
### Response y

### Prompt Can you handle `C[C@@](C(=O)O[C@H]1C[N+]2(CCCc3ccncc3)CCC1CC2)(c1ccccc1)N1CCCCC1` next?
### Response n

* * *

# Assay remarks: in vitro
# Test conditions: hepatocytes
The label depends only on hepatocyte CLint: TRUE if it is at least 10 µL/min/1e6 cells, FALSE if it is smaller.

Worked examples, 5 molecules total:
Cc1ccccc1/N=N/c1ccc(NC(=O)c2ccnn2C)c(C)c1: TRUE
Cc1ccc(C(NC(=O)c2ccccc2O)C(=O)Nc2c(C)cccc2C)s1 (stereo not drawn): TRUE
CCN(C(=O)c1cnn(-c2ccccc2)c1NS(=O)(=O)c1ccc(-c2cnco2)cc1)C1CCCCC1: TRUE
CC(C)(C)NS(=O)(=O)c1cncc(-c2ccc3nc(NC(=O)NCC(=O)N4CCOCC4)nn3c2)c1: FALSE
COc1ccnc(CSc2nc3ccccc3[nH]2)c1: TRUE

### Prompt Item `C[C@H](CO)Nc1nc(SCc2ccco2)nc2[nH]c(=O)sc12` with hepatocyte CLint of 10 µL/min/1e6 cells or above?
### Response TRUE

### Prompt Can you handle COc1ccc(N(C(=O)c2ccco2)C(C(=O)NC2CCCC2)c2ccccc2F)c(OC)c1 (stereo not drawn) next?
### Response TRUE

* * *

Recorded logD by entry
# Assay remarks: physchem
# Test conditions: octan-1-ol/water, pH 7.4, LogD7.4
Output spec: single numeric token, no unit.

O=C(O)CCn1c2ccccc2c2ccccc21: 0.6
O=C(Nc1ccc(F)cc1F)c1cc(Cl)ccc1O: 3.6
N#Cc1ccc(Nc2nccc(NC3CC3)n2)cc1: 3.01
COc1cc2ncnc(N3CC[C@@H](Oc4cnc5ccccc5n4)C3)c2cc1OC: 4.04
O=C(COCc1ccccn1)N1CCN(c2ccc(Cl)cc2Cl)CC1: 3.47

Now examine the next entry.
### Prompt Which value of logD has been reported for `O=c1[nH]c2c(O)ccc([C@@H](O)CNCCSCCCNCCc3ccccc3)c2s1` in the records?
### Response 0.12

* * *

# Assay remarks: physchem
# Test conditions: octan-1-ol/water, pH 7.4, LogD7.4
The label depends only on logD: True if it is at least 2, False if it is smaller.

COc1cccc([C@@H](C)NCCCc2ccccc2Cl)c1: True
CCc1cc(C(N)=S)ccn1 [ETHIONAMIDE]: False
CC(C)C(NC(=O)Cn1c(-c2ccccc2)ccc(NC(=O)NCc2ccncc2)c1=O)C(=O)C(F)(F)F (stereo not given): True
C[C@@H]1CN(c2nc(N3CCOC[C@@H]3C)c3ccc(-c4ccccc4)nc3n2)C[C@H](C)O1: True
Cc1c(-c2ccccc2F)c(=O)n(C[C@H](N)c2ccccc2)c(=O)n1Cc1c(F)cccc1F: True

### Prompt Item `CCc1nc2c(N)nc3ccccc3c2n1CCCCNS(C)(=O)=O` with logD of 2 or above?
### Response False

* * *

Recorded pKa by entry
# Assay remarks: physchem

Worked examples follow.
COc1ccnc(NC2CCN(C(=O)c3ccccc3)CC2)c1: 6.85
CNCC[C@@H](Oc1cc(C(F)(F)F)ccc1C#N)c1ccccc1: 10.4
Nc1ncnc2c1ncn2CCOCP(=O)(O)O: 4.34

### Prompt Which value of pKa has been reported for CC(C)(C)c1ccc(C(O)CCCN2CCC(C(O)(c3ccccc3)c3ccccc3)CC2)cc1 (stereo not given) in the records?
### Response 8.8

### Prompt Can you handle `O=C(Nc1ccc(N2CCOCC2)c(F)c1)c1nnc(Nc2ccccc2F)o1` next?
### Response 6.17

* * *

# Test conditions: buffer, pH 7.4
// assign 1.0 if LogD7.4 falls strictly below 3, else 0.0 (ties count as 0.0)

Worked examples, 10 compounds total:
CC(C)/N=c1\cc2n(-c3ccc(Cl)cc3)c3ccccc3nc-2cc1Nc1ccc(Cl)cc1 [CLOFAZIMINE]: 0.0
CN1CCN(CCCN2c3ccccc3Sc3ccc(C(F)(F)F)cc32)CC1 [TRIFLUOPERAZINE]: 0.0
CS(=O)(=O)c1ccc(-c2cc(Cl)ccc2OCC(=O)O)c(Cl)c1: 1.0
CN1CCN(CCCN2c3ccccc3Sc3ccc(Cl)cc32)CC1 [PROCHLORPERAZINE]: 0.0
CCS(=O)(=O)c1ccc(-c2cc(Cl)ccc2OCC(=O)O)cc1: 1.0
CS(=O)(=O)c1ccc(-c2cc(C(F)(F)F)ccc2OCC(=O)O)c(Cl)c1: 1.0
NC(=O)N1c2ccccc2CC(=O)c2ccccc21 [OXCARBAZEPINE]: 1.0
CS(=O)(=O)c1ccc(-c2cc(C(F)(F)F)ccc2OCC(=O)O)cc1: 1.0
CCOC(=O)C1(c2ccccc2)CCN(C)CC1 [MEPERIDINE]: 1.0
CCS(=O)(=O)c1ccc(-c2cc(Cl)ccc2OCC(=O)O)c(F)c1: 1.0

### Prompt Check if LogD7.4 falls below 3 for `CN(c1ccc(-c2cc(F)ccc2OCC(=O)O)c(Cl)c1)S(C)(=O)=O` .
### Response 1.0

### Prompt Can you handle `CCN(CC)c1ccc(-c2nn3c(-c4n[nH]c5c4CCC5)nnc3s2)cc1` next?
### Response 0.0

### Prompt Can you handle COc1cc(N)c(Cl)cc1C(=O)NC1CCN(CCCOc2ccc(F)cc2)CC1OC (stereo not given) [CISAPRIDE] next?
### Response 0.0

### Prompt Can you handle O=c1c2ccccc2[se]n1-c1ccccc1 [EBSELEN] next?
### Response 0.0

### Prompt Can you handle Clc1ccc(COC(Cn2ccnc2)c2ccc(Cl)cc2Cl)cc1 (stereo not given) [ECONAZOLE] next?
### Response 1.0

* * *

Recorded log10 of solubility thermodynamic by entry
# Assay remarks: physchem
# Test conditions: pH 7.4 buffer
Scale: log10; quantity: solubility thermodynamic; unit before log: µM

O=C(Nc1ccccc1-c1ccccc1)OC1CCN(CCCCCCCCCNC[C@H](O)c2ccc(O)c3[nH]c(=O)ccc23)CC1: 2.72
COc1cc(-c2cccc3c(=O)cc(N4CCOCC4)oc23)ccc1NC(=O)CN1CCOCC1: 1.12
CC1Cc2ccccc2N1NC(=O)c1ccc(Cl)c(S(N)(=O)=O)c1 (centres undefined) [INDAPAMIDE]: 2.18
COC[C@H](C)Oc1cc(O[C@@H](C)Cc2ccc(F)cc2)cc(C(=O)Nc2ccc(C(=O)O)cn2)c1: 3.10
O=C(c1ccc(F)cc1)C1CCN(C(=O)Nc2ccc(F)cc2)CC1: 0.65

### Prompt Which value of log10 of solubility thermodynamic has been reported for `C[C@@H](Oc1cccc2ncnc(Nc3ccc4c(cnn4Cc4ccccn4)c3)c12)C(=O)N1CCOCC1` in the records?
### Response 1.98

### Prompt Can you handle `CC(=O)Nc1ccc(-c2ccccc2)cc1` next?
### Response 1.90

### Prompt Can you handle `Cc1nc(C)c(-c2ccc3c(c2)CC[C@]32CC[C@@H](Cc3nnn[nH]3)CC2)nc1C(N)=O` next?
### Response 1.89

### Prompt Can you handle `COc1ccc(Cl)c(Nc2ncnc3cc(OCCN4CCN(C(C)=O)CC4)cc(OC(C)C)c23)n1` next?
### Response 1.63

Source listed as ChEMBL document CHEMBL3301361.
